This section presents sequences with their documented soluble fraction (log2) values.
assay: soluble fraction after stress (log2 fold change); higher = more stays soluble; pooled small domains, quantitative proteomics; conditions: stress: pH 4
recorded_metric: soluble fraction (log2)

input_sequence: HMAPQVKIPNLVDVSQRQAEAILNSYGLKVGHLIYKPDLAKDAVLGFMFNGRSLKAGDELAKGSSIDLILG
val: 0.192
//
input_sequence: HMQQQLLHIVFGGELKDVTGIEFEDLSKMDFVGAFSNYKDAYDAWKSAAQRTVDHAEMRYFILHAHKLL
val: -2.31
//
input_sequence: HMGEYGVLWYLLTKKEAVSAGELKEKLHVVPGRMTDILTALEKKGLIIRQKNKTDKRVVDVVLTKEGEKEA
val: -0.511
//
input_sequence: HMRLEEVSVPQRLLAAIAEEREVQIGIVDGRGGTRVLRVEPLALEGGRLRARDVESGEEFTVLIHRVLL
val: -0.809
//
input_sequence: HMSKQEFVDRLRVSLSGKISPASVEDNARYYEDYINTHIRLGEPEEDVLEGLGDPRLIARSIVAAESV
val: -0.0405
//
input_sequence: HMRGVDRPLTLPRHWRRNAGRLVKVTLANGSAVTGRVLDPGEERVTLEVSGERHEVAYADVKKALVQVEF
val: -0.32
//
input_sequence: HMKININEASRYELMTIGGLDAGRADMLMQYRQKREISSADELKGINGFASYDTAKLQKSFEISP
val: 0.00275
//
input_sequence: HMATTMSADWRPSEDAVGILVNAEINARFIEDAIPEFVLYWRERGAVHGAWNSKFIEHIRRQWAKFSAS
val: -1.31
